# TEST_TARGET: various mutants of kinase EGFR (BaF3 cell lines stably transfected with kinase) (Homo sapiens, UniProt P00533, T790M, form not given)
# Construct: other: BaF3 cells stably transfected with EGFR Δ19Del/T790M; MTS, 48 h; other: BaF3 cell line stably transfected with EGFR Δ19Del/T790M; MTS, 48
# Sequence (P00533 with tags, fused parts or gaps DEL746-750/T790M, form open): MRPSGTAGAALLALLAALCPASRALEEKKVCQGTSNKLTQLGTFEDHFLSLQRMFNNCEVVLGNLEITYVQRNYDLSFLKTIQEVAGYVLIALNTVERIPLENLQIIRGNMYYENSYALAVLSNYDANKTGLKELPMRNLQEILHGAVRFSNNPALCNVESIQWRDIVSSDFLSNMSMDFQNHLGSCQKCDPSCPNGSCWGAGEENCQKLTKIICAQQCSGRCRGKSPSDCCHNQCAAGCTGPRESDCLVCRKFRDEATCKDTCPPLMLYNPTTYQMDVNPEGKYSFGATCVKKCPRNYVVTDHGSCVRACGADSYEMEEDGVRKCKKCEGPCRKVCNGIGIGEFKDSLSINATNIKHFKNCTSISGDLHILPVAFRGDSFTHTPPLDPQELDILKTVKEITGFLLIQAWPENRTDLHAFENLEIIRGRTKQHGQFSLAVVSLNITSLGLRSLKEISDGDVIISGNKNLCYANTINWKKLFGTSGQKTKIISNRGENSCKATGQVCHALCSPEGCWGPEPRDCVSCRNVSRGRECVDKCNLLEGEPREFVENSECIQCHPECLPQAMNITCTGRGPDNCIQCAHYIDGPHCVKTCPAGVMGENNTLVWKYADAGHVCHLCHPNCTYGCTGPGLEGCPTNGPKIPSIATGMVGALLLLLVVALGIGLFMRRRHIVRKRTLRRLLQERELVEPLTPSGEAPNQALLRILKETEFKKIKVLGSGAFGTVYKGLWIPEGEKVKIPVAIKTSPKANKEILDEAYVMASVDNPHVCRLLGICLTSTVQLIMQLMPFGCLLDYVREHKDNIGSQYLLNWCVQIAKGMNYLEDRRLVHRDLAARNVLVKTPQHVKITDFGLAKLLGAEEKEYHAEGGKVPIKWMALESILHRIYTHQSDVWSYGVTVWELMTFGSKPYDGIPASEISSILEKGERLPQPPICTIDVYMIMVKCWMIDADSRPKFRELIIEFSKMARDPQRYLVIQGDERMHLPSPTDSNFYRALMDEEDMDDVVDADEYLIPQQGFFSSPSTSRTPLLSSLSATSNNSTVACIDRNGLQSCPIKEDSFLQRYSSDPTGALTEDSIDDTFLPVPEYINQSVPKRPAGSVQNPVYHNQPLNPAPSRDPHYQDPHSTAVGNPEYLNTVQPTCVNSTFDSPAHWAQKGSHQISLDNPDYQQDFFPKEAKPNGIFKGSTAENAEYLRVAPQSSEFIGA
# TEST: Growth inhibitory activity of compounds on BaF3 cell lines stably transfected with kinase (MTS, 48 h)
# Format: cell-based
# CONDITIONS_USED: BaF3 cell line stably transfected with EGFR Δ19Del/T790M, read-out: Δ19Del/ T790M growth inhibitory activity IC50
MEASURED_PARAMETER: IC50

MOLECULE: COc1cc(N2CCC(N3CCN(C)CC3)CC2)c(C)cc1Nc1nc(Nc2ccc3nccnc3c2N(C)S(C)(=O)=O)c2[nH]ccc2n1
IC50: 0.5 to 2.5 µM

MOLECULE: COc1nc(N2CCC(N3CCN(C)CC3)CC2)ccc1Nc1nc(Nc2ccc3nccnc3c2N(C)S(C)(=O)=O)c2sccc2n1
IC50: 0.5 to 2.5 µM

Memo: CCc1cc(Nc2nc(Nc3ccc4nccnc4c3N(C)S(C)(=O)=O)c3ccsc3n2)c(OC(F)(F)F)cc1N1CCC(N2CCN(C)CC2)CC1 , reported IC50: 0.5 to 2.5 µM

Memo: COc1ccc(N2CCC(O)CC2)cc1Nc1ncc(C2CC2)c(Nc2ccc3nccnc3c2N(C)S(C)(=O)=O)n1 , reported IC50: 0.05 to 0.5 µM

----------
Measured pIC50 by item
# TEST_TARGET: various mutants of kinase EGFR (BaF3 cell lines stably transfected with kinase) (Homo sapiens)
# Construct: other: BaF3 cells stably transfected with EGFR Δ19Del; MTS, 48 h; other: BaF3 cell line stably transfected with EGFR Δ19Del
# TEST: Growth inhibitory activity of compounds on BaF3 cell lines stably transfected with kinase (MTS, 48 h)
# Format: cell-based
# CONDITIONS_USED: BaF3 cell line stably transfected with EGFR Δ19Del, read-out: Δ19Del growth inhibitory activity IC50
pIC50: −log10 of the molar value.

Past entries and their recorded results:
COMPOUND: CCc1cc(Nc2ncc(Br)c(Nc3ccc4nccnc4c3N(C)S(C)(=O)=O)n2)c(OC)cc1NCCN(C)C [Compound I-391]
pIC50: 6.30 to 7.30

COMPOUND: COc1cc(N2CCC(N3CCN(C)CC3)CC2)c(C)cc1Nc1nccc(Nc2ccc3nccnc3c2N(C)S(C)(=O)=O)n1 [Compound I-340]
pIC50: ≥ 7.30

COMPOUND: CCOc1cnc(Nc2cc(CC)c(N3CCC(N4CCN(C)CC4)CC3)nc2OC)nc1Nc1ccc2nccnc2c1N(C)S(C)(=O)=O [Compound I-338]
pIC50: 6.30 to 7.30

COMPOUND: COc1cc(N2CCC(N3CCN(C)CC3)CC2)c(C)cc1Nc1nc(Nc2ccc3nccnc3c2N(C)S(C)(=O)=O)c2sccc2n1 [II-1-2]
pIC50: 6.30 to 7.30

COMPOUND: COc1ccc(N2CCC(O)CC2)cc1Nc1ncc(F)c(Nc2ccc3nccnc3c2N(C)S(C)(=O)=O)n1 [Compound I-367]
pIC50: 5.60 to 6.30

COMPOUND: COc1ccc(N2CCC(O)CC2)cc1Nc1ncc(Cl)c(Nc2ccc3nccnc3c2N(C2CC2)S(C)(=O)=O)n1 [Compound I-379]
pIC50: ≥ 7.30

COMPOUND: CCc1cc(Nc2nc(Nc3ccc4nccnc4c3N(C)S(C)(=O)=O)c3[nH]ccc3n2)c(OC)cc1N1CCC(N(C)C)CC1 [II-1-32]
pIC50: 5.60 to 6.30

COMPOUND: COc1cc(N2CCN(C)CC2)c(C)cc1Nc1ncc(Br)c(Nc2ccc3nccnc3c2N(C2CC2)S(C)(=O)=O)n1 [Compound I-309]
pIC50: 6.30 to 7.30

Memo: COc1cc(N2CCC(N3CCN(C)CC3)CC2)c(C)cc1Nc1ncc(C(C)C)c(Nc2ccc3nccnc3c2N(C)S(C)(=O)=O)n1 [Compound I-326] , reported pIC50: 6.30 to 7.30

Memo: COc1ccc(N2CCC(O)CC2)cc1Nc1ncc(C2CC2)c(Nc2ccc3nccnc3c2N(C)S(C)(=O)=O)n1 [Compound I-365] , reported pIC50: 6.30 to 7.30

Memo: CCc1cc(Nc2nc(Nc3ccc4nccnc4c3N(C)S(C)(=O)=O)c3[nH]ccc3n2)c(OC(F)(F)F)cc1N1CCC(N2CCN(C)CC2)CC1 [II-1-22] , reported pIC50: 6.30 to 7.30

----------
# TEST_TARGET: various mutants of kinase EGFR (BaF3 cell lines stably transfected with kinase) (Homo sapiens, UniProt P00533, L858R)
# Construct: expressed in transfected cells; host or cells: BaF3
# Sequence (P00533 25-1210 L858R): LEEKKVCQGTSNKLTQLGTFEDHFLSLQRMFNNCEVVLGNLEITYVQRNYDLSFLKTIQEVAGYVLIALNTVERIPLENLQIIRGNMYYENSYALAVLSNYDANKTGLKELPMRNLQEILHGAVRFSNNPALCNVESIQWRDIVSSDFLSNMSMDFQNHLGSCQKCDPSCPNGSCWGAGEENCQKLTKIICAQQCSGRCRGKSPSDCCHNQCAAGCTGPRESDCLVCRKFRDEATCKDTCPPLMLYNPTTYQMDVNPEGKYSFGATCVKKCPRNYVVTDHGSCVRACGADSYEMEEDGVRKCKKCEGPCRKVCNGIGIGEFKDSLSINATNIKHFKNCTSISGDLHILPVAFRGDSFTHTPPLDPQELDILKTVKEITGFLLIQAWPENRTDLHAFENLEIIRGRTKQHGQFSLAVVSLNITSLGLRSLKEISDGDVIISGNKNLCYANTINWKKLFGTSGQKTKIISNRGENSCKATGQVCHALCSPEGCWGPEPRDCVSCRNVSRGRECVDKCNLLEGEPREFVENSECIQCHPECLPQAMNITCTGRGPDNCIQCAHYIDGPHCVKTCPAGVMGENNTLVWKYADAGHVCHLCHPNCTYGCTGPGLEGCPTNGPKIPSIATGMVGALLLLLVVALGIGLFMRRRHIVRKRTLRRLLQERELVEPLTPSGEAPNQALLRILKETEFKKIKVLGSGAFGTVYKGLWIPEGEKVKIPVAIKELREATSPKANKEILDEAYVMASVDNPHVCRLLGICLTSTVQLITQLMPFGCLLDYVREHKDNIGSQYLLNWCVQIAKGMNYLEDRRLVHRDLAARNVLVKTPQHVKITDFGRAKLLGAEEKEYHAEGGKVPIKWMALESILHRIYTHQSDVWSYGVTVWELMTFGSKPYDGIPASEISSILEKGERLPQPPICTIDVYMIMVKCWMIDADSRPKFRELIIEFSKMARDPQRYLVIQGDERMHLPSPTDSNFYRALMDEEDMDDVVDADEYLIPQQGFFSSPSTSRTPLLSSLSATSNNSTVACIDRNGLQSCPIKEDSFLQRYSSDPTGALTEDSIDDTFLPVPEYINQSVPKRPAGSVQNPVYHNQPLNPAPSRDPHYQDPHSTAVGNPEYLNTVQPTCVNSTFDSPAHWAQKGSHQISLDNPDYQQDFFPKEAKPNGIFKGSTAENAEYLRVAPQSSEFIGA
# TEST: Growth inhibitory activity of compounds on BaF3 cell lines stably transfected with kinase (MTS, 48 h)
# Format: cell-based
# CONDITIONS_USED: BaF3 cell line stably transfected with EGFR L858R, read-out: L858R growth inhibitory activity IC50
# Experimental: The activity of compounds against various mutants of kinase EGFR was evaluated by their effect of inhibiting growth of BaF3 cell lines stably transfected with kinase. The specific test method was given as follows: […] 3) Compound test: cells were incubated into a 96-well culture plate, the volume of cytosol was 90 µL, and then 10 µL of the compound at each gradient concentration was added. […] OD values at 490 nm were measured by a microplate reader (VARIOSKAN FLASH, Thermo). […]
pIC50: −log10 of the molar value.
Measured pIC50 by item

Past entries and their recorded results:
COMPOUND: COc1cc(N2CCC(N3CCN(C)CC3)CC2)c(C)cc1Nc1nc(Nc2ccc3nccnc3c2N(C)S(C)(=O)=O)c2[nH]ccc2n1 [II-1-19]
pIC50: 5.60 to 6.30
--
COMPOUND: CCc1cc(Nc2ncc(Br)c(Nc3ccc4nccnc4c3NS(=O)(=O)C(C)C)n2)c(OC)cc1N1CCC(N2CCN(C)CC2)CC1 [Compound I-415]
pIC50: ≥ 7.30
--
COMPOUND: CCc1cc(Nc2ncc(C(C)C)c(Nc3ccc4nccnc4c3N(C)S(C)(=O)=O)n2)c(OC)cc1N1CCC(N(C)C)CC1 [Compound I-330]
pIC50: ≥ 7.30
--
COMPOUND: CCN(c1c(Nc2nc(Nc3cc(N4CCC(O)CC4)ccc3OC)ncc2Br)ccc2nccnc12)S(C)(=O)=O [Compound I-378]
pIC50: 6.30 to 7.30
--
COMPOUND: COc1ccc(N2CCC(O)CC2)cc1Nc1ncc(OC)c(Nc2ccc3nccnc3c2N(C)S(C)(=O)=O)n1 [Compound I-366]
pIC50: 6.30 to 7.30
--
COMPOUND: CCc1cc(Nc2ncc(OC)c(Nc3ccc4nccnc4c3N(C)S(C)(=O)=O)n2)c(OC)cc1N1CCC(N2CCN(C)CC2)CC1 [Compound I-333]
pIC50: ≥ 7.30

Turning now to a further compound:
Memo: CC(C)n1cc(Nc2ncc(Br)c(Nc3ccc4nccnc4c3N(C)S(C)(=O)=O)n2)cn1 [Compound I-388] , reported pIC50: 6.30 to 7.30
